// provenance: ChEMBL document CHEMBL2218924

// residual activity lookup, one value per entry
# MEASURED TARGET: AMP-activated protein kinase (AMPK) alpha-1/beta-1/gamma-1 (Homo sapiens) (UniProt P54619+Q9Y478+Q13131)
# Sequence (P54619 whole entry): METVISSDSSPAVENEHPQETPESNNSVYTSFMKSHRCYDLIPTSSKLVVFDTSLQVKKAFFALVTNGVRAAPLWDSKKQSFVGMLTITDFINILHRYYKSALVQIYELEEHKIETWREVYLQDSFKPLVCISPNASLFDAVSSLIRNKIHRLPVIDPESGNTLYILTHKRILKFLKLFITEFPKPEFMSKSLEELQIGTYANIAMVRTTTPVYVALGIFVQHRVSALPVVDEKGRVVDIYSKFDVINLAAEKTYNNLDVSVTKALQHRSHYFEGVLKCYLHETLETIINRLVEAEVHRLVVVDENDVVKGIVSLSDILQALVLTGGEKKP
# Sequence (Q13131 whole entry partner): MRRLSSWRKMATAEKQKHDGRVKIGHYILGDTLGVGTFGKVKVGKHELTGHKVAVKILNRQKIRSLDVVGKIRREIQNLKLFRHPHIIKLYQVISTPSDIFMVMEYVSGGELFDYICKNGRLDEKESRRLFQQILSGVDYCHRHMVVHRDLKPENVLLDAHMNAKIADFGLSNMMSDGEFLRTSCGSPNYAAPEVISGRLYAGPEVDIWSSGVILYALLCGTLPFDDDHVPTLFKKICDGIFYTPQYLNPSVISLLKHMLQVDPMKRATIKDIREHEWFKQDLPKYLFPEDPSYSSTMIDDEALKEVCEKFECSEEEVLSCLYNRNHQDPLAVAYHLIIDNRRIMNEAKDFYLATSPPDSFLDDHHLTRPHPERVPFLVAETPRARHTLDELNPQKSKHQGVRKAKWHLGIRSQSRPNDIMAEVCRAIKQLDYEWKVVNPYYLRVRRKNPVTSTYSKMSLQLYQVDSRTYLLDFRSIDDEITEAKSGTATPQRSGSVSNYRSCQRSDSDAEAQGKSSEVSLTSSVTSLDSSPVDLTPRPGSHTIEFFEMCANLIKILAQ
# Sequence (Q9Y478 2-270 partner limits assumed): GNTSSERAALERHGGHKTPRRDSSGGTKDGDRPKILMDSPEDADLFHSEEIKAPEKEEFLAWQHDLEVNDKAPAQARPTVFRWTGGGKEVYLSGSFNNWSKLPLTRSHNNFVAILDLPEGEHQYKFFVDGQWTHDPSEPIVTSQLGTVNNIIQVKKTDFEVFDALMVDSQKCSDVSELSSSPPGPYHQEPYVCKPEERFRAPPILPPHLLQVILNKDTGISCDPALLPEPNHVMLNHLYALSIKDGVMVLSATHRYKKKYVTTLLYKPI
# CONDITION DETAILS: at 10 µM
Numeric only. Scale: %

Worked examples, 3 compounds total:
COMPOUND	UNIT NAME	residual activity
N#C/C(=C1/Nc2ccccc2S1)c1ccnc(NCCc2cccnc2)n1	%	70
NC(=O)c1ccc(-c2nc(-c3ccc4c(c3)OCCO4)c(-c3ccccn3)[nH]2)cc1	%	92
O=C1Nc2ccc(Cl)cc2/C1=C/c1cc(Cl)c(O)c(Cl)c1	%	40

Quick check: residual activity of CSc1nc(-c2ccc(F)cc2)c(-c2ccnc(NC(C)c3ccccc3)c2)[nH]1 (stereo not given) ?
59

Quick check: residual activity of CCOC(=O)c1c(C)[nH]c(/C=C2\C(=O)Nc3ccccc32)c1C ?
65

Quick check: residual activity of COc1ccc2c(c1)c(C1=C(c3c[nH]c4ccccc34)C(=O)NC1=O)cn2CCCN(C)C ?
11

Quick check: residual activity of O=C1Cc2c([nH]c3ccc([N+](=O)[O-])cc23)-c2ccccc2N1 ?
40

Quick check: residual activity of O=c1cc(N2CCOCC2)oc2c1ccc1ccccc12 ?
94

Quick check: residual activity of CCN1/C(=C/C(C)=O)Sc2ccc(OC)cc21 ?
54

Quick check: residual activity of Nc1nc(Nc2ccc(S(N)(=O)=O)cc2)nn1C(=O)c1c(F)cccc1F ?
11

Quick check: residual activity of O=C(c1cc2cc(O)ccc2[nH]1)c1cc2cc(O)ccc2[nH]1 ?
1

Quick check: residual activity of O=S(=O)(NCCNC/C=C/c1ccc(Br)cc1)c1cccc2cnccc12 ?
15

Quick check: residual activity of Nc1ncnc2[nH]nc(Nc3ccc(F)cc3)c12 ?
69

###

# MEASURED TARGET: Serine/threonine-protein kinase VRK2 (Homo sapiens) (UniProt Q86Y07)
# Sequence (Q86Y07 whole entry): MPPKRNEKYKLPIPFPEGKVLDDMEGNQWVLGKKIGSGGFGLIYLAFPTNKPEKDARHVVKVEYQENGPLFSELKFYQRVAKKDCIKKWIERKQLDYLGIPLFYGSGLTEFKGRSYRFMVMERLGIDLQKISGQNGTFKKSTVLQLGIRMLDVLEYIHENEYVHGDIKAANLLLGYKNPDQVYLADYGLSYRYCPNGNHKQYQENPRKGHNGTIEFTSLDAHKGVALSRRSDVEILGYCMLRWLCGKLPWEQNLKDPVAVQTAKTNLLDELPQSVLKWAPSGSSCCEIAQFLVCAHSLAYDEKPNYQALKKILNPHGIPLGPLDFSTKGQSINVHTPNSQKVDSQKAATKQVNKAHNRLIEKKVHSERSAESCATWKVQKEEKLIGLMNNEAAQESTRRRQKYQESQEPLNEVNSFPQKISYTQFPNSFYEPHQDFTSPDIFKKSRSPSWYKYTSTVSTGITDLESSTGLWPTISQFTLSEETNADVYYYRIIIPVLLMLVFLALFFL
# CONDITION DETAILS: at 1 µM
# Description: Millipore: Percentage of residual kinase activity of VRK2 at 1uM relative to control. Control inhibitor: Phosphoric acid* at 0.3uM. Buffer: 8 mM MOPS pH 7.0, 0.2 mM EDTA
// residual activity lookup, one value per entry
Numeric only. Scale: %

Worked examples, 2 compounds total:
O=C1Nc2ccccc2/C1=C\c1c(Cl)[nH]c2ccccc12 76
NC(=O)Nc1sc(-c2ccc(F)cc2)cc1C(N)=O 95

GET /values?readout=residual activity&system=Serine/threonine-protein kinase VRK2 (Homo sapiens) (UniProt Q86Y07)&item= CCCC(=O)Oc1ccc2[nH]c(C(=O)c3cc4ccccc4[nH]3)cc2c1
105

GET /values?readout=residual activity&system=Serine/threonine-protein kinase VRK2 (Homo sapiens) (UniProt Q86Y07)&item= O=C(CCCc1ccc(-c2ccccc2F)cc1)Nc1ccc(O)cc1
102

GET /values?readout=residual activity&system=Serine/threonine-protein kinase VRK2 (Homo sapiens) (UniProt Q86Y07)&item= O=c1c(-c2ccc(F)cc2)c(-c2ccncc2)[nH]n1-c1ccc(Cl)cc1
100

GET /values?readout=residual activity&system=Serine/threonine-protein kinase VRK2 (Homo sapiens) (UniProt Q86Y07)&item= O=c1cc(N2CCOCC2)oc2c1ccc1ccccc12;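 further: remaining VRK2 kinase activity expressed as percent of uninhibited control, measured in MOPS buffer at pH 7.0 containing EDTA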
105

###

# MEASURED TARGET: Tyrosine-protein kinase Fes/Fps (Homo sapiens) (UniProt P07332)
# Sequence (P07332 whole entry): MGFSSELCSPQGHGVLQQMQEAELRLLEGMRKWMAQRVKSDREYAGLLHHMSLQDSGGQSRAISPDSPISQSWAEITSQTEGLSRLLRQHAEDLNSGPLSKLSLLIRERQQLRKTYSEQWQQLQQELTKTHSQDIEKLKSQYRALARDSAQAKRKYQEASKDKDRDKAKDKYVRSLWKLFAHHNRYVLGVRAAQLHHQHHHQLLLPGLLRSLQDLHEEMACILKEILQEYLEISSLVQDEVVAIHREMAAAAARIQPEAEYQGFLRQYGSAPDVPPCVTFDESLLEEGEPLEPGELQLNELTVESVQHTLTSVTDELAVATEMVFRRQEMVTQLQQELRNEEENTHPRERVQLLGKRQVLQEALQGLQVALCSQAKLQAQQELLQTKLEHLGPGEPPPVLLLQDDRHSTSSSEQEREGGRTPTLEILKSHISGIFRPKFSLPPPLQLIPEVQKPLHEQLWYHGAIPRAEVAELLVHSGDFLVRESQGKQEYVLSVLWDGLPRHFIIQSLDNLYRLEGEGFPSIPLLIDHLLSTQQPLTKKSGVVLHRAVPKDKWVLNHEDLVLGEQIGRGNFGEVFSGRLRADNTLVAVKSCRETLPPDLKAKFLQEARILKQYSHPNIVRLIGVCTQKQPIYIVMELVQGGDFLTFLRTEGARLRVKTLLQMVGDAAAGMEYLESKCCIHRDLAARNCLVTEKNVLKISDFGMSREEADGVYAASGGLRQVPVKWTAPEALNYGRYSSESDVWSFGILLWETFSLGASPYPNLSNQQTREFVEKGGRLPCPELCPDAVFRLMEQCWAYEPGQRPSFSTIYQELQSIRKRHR
# CONDITION DETAILS: at 10 µM
// residual activity lookup, one value per entry
Numeric only. Scale: %

Worked examples, 3 compounds total:
NC(=O)Nc1sc(-c2ccc(F)cc2)cc1C(N)=O 24
O=C1Nc2ccccc2/C1=C\c1c(Cl)[nH]c2ccccc12 78
CN(C)S(=O)(=O)c1ccc2c(c1)/C(=C/c1cc3c([nH]1)CCCC3)C(=O)N2 61

Quick check: residual activity of O=c1cc(N2CCNCC2)oc2c(-c3ccccc3)cccc12 ?
89

Quick check: residual activity of O=C(c1cc2cc(O)ccc2[nH]1)c1cc2cc(O)ccc2[nH]1 ?
28

Quick check: residual activity of COc1ccc(-c2cnc3c(-c4ccsc4)cnn3c2)cc1 ?
82

Quick check: residual activity of O=C(O)/C=C/c1cc(Br)c(Br)c(Br)c1Br ?
74
